Biological target: UniProt Q9NR96
Sequence (Q9NR96 26-1032): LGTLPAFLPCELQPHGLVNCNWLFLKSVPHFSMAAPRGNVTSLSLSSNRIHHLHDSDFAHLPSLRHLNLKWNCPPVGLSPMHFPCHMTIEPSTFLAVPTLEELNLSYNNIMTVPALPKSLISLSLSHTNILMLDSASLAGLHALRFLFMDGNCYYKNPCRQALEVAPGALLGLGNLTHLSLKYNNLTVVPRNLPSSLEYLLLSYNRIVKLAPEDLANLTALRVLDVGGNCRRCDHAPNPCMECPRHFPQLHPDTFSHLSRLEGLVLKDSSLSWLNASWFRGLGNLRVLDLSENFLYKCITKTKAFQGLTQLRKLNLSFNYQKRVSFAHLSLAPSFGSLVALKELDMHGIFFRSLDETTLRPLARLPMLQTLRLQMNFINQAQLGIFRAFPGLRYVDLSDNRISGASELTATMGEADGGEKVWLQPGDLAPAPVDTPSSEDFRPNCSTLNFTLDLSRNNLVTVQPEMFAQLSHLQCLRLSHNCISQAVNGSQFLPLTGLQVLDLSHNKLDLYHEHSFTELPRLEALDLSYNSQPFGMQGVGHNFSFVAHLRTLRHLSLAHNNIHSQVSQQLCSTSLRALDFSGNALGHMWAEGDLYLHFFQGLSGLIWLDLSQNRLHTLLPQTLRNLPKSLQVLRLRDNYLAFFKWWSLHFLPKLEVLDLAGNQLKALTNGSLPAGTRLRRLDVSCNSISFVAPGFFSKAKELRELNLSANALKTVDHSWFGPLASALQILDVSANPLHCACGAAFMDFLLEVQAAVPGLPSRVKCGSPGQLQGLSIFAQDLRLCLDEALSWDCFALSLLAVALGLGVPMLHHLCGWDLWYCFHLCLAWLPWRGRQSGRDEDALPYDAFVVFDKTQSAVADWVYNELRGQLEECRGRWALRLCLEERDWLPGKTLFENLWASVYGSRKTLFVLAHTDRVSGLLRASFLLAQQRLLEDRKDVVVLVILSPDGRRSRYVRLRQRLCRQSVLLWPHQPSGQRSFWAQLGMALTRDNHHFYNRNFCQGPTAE
Experiment: TLR9 inhibition reporter assay (HEK-Blue cells, SEAP reporter, ODN2006 stimulation)
Conditions: HEK-Blue cells overexpressing human TLR9, SEAP reporter, ODN2006 5 nM
IC50 values by entry

- compound: "COc1cc(-c2[nH]c3ccc(C4CCN(CC(=O)N(C)C)CC4)cc3c2C(C)C)cn2cc(C(=O)N(C)C)nc12"
  target_entity: "UniProt Q9NR96"
  IC50: "1 to 50 µM"
- compound: "CC(C)c1c(-c2ccnc3[nH]ncc23)[nH]c2ccc(C3CCNCC3F)cc12 (stereo not drawn) [Example 172]"
  target_entity: "UniProt Q9NR96"
  IC50: "1 to 50 µM"
- compound: "CCc1c(-c2ccnc3[nH]ncc23)[nH]c2ccc(C3CCN(C(=O)C4CCN(C)CC4)CC3)cc12"
  target_entity: "UniProt Q9NR96"
  IC50: "1 to 50 µM"
- compound: "Cc1nc(CN2CCC(c3ccc4[nH]c(-c5ccc6nccn6c5)c(C(C)C)c4c3)CC2)c[nH]1"
  target_entity: "UniProt Q9NR96"
  IC50: "0.1 to 1 µM"
- compound: "Cc1cc(-c2[nH]c3ccc(C4CCN(CC(N)=O)CC4)cc3c2C(C)C)cc2cnnn12"
  target_entity: "UniProt Q9NR96"
  IC50: "1 to 50 µM"
- compound: "Cc1cc2ncnn2nc1-c1[nH]c2ccc(C3CCN(C(=O)CN(C)C)CC3)cc2c1C(C)C"
  target_entity: "UniProt Q9NR96"
  IC50: "1 to 50 µM"
- compound: "CCOc1cc(-c2[nH]c3ccc(C4CCN(CC(=O)NC)CC4)cc3c2C(C)C)cc2ncnn12"
  target_entity: "UniProt Q9NR96"
  IC50: "1 to 50 µM"
- compound: "Cc1cc(-c2[nH]c3ccc(C4CCN(C(=O)CCN5CCOCC5)CC4)cc3c2C(C)C)cn2nnnc12"
  target_entity: "UniProt Q9NR96"
  IC50: "1 to 50 µM"

Prompt: State IC50 (UniProt Q9NR96) of Cc1cc2nnnn2cc1-c1[nH]c2ccc(C3CCN(C4CCS(=O)(=O)CC4)CC3)cc2c1C(C)C .
Completion: 1 to 50 µM

Prompt: State IC50 (UniProt Q9NR96) of Cc1c(-c2[nH]c3ccc(C4CCN(CC(=O)N(C)C)CC4)cc3c2C(C)C)cn2ccnc2c1C .
Completion: 0.1 to 1 µM

Prompt: State IC50 (UniProt Q9NR96) of CC(C)c1c(-c2ccn3nnnc3c2)[nH]c2ccc(C3CCN(CC(=O)N(C)C)CC3)cc12 .
Completion: 1 to 50 µM

Prompt: State IC50 (UniProt Q9NR96) of CC(C)c1c(-c2ccnc3[nH]ncc23)[nH]c2ccc(C3CCN(C(=O)CCC(=O)N(C)C)CC3)cc12 .
Completion: > 50 µM

Prompt: State IC50 (UniProt Q9NR96) of Cc1cc(-c2[nH]c3ccc(C4CCN(C(=O)CN5CC(C)(C)OC(C)(C)C5)CC4)cc3c2C(C)C)cn2nnnc12 .
Completion: > 50 µM

Prompt: State IC50 (UniProt Q9NR96) of CC(C)c1c(-c2ccnc3[nH]ncc23)[nH]c2ccc(C3CCN(Cc4ccc(Oc5ncccn5)cc4)CC3)cc12 .
Completion: 0.1 to 1 µM

Prompt: State IC50 (UniProt Q9NR96) of Cc1cc2nc(-c3[nH]c4ccc(C5CCNCC5)cc4c3C(C)C)ccn2n1 .
Completion: 1 to 50 µM

---

Biological target: human TLR8 (Homo sapiens)
Sequence (Q9NR97 27-1041): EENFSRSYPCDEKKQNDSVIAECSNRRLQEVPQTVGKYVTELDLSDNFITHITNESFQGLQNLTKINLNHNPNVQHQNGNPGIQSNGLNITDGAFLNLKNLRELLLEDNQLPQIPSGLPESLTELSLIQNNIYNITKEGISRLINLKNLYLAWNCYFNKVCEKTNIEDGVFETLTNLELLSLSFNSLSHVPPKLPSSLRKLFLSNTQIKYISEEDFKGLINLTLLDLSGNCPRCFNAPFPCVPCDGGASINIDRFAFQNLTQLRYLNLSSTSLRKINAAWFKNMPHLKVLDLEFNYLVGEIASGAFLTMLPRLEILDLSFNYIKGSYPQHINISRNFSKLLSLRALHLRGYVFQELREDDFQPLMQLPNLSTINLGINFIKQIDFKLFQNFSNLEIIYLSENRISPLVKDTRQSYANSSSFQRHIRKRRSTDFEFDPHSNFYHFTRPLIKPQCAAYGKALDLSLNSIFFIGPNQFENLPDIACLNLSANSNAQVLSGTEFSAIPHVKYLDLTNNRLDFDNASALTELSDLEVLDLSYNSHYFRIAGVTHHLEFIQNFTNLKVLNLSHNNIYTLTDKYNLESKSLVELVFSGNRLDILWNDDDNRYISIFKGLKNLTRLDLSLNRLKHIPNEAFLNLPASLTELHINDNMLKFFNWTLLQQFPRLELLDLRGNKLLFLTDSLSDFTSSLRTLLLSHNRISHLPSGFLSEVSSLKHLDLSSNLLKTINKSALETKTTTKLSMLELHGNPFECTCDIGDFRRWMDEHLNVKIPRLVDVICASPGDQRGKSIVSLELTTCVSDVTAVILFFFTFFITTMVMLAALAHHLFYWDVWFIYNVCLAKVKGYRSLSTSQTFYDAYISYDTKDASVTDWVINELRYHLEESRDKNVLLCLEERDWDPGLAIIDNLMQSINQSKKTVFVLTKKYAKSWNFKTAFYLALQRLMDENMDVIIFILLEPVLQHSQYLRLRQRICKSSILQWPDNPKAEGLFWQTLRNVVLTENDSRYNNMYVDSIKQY
Assay: TLR8 inhibition reporter assay (HEK-Blue cells, SEAP reporter, R848 stimulation)
Conditions: HEK-Blue cells overexpressing human TLR8, SEAP reporter, R848 15.9 μM
pIC50: −log10 of the molar value.
endpoint_name: pIC50

Completed entries (count: 6):
- molecule: "Cc1cc(-c2[nH]c3ccc(C4CCN(Cc5ncn(C)n5)CC4)cc3c2C(C)C)cn2nnnc12"
  pIC50: "> 7.00"
- molecule: "Cc1cc(-c2[nH]c3ccc(C4CCN(CC(=O)N(C)C)CC4)cc3c2C(C)C)nn2ccnc12"
  pIC50: "> 7.00"
- molecule: "CC(C)c1c(-c2ccnc3[nH]ncc23)[nH]c2ccc(C3CCN(C(=O)CCn4ccnc4)CC3)cc12"
  pIC50: "> 7.00"
- molecule: "CC(C)c1c(-c2ccn3cnnc3c2)[nH]c2ccc(C3CCNCC3)cc12"
  pIC50: "6.00 to 7.00"
- molecule: "CNC(=O)CN1CCC(c2ccc3[nH]c(-c4cc(C)c5nn(C)cc5c4)c(C(C)C)c3c2)CC1"
  pIC50: "6.00 to 7.00"
- molecule: "Cc1cc(-c2[nH]c3ccc(C4CCN(Cc5ncn(C)n5)CC4)cc3c2C(C)C)cc2cnnn12"
  pIC50: "> 7.00"

Prompt: State pIC50 (human TLR8 (Homo sapiens)) of COCCNC(=O)c1cn2cc(-c3[nH]c4ccc(C5CCNCC5)cc4c3C(C)C)cc(C)c2n1 .
Completion: > 7.00

Prompt: State pIC50 (human TLR8 (Homo sapiens)) of CC(C)c1c(-c2cc(Cl)c3ncccc3c2)[nH]c2ccc(C3CCN(CC(=O)N(C)C)CC3)cc12 .
Completion: > 7.00

Prompt: State pIC50 (human TLR8 (Homo sapiens)) of CNCCN1CCC(c2ccc3[nH]c(-c4ccc5c(ccn5C)c4)c(C)c3c2)CC1 .
Completion: < 5.51
